Each entry below carries its recorded inhibition.
- experimental target: Gag-Pol polyprotein (Human immunodeficiency virus type 1 group M subtype B (isolate HXB2)) (UniProt P04585)
- assay comment: RNase H inhibition, HIV 1 Gag Pol polyprotein, FRET biochemical assay, screening (AID 372)
- assay setup: HIV-1 RT RNase H, FRET RNA/DNA substrate fluorescence; at 10 µM; hits give high values
In all, about 100,000 compounds went through this assay and about 770 (0.77%) were called active. The full list was thinned out, with actives kept by preference.
Lab book: enter the figure in %, no units written.

What value of inhibition has been recorded for this entry: `S=C(NCCc1ccccn1)Nc1ccc(Cl)cc1Cl` 50

# query: inhibition of entry `COc1cc(C(=O)NN2C(=O)/C(=C/c3ccc(OC)c(OC)c3)SC2=S)ccc1O` 61

Which value of inhibition has been reported for `S=C(NCCc1c[nH]c2ccccc12)Nc1ccc(Cl)c(Cl)c1` in the records? 49

Field request: inhibition | item: `COc1cc(/C=C2\SC(=S)N(NC(=O)c3ccccc3Br)C2=O)ccc1O` 18

Using the record for `CCN(CC)CCOc1ccccc1C` , report its inhibition. 3

Requested read-out: inhibition. Entry: `COc1cc(/C=C2\SC(=S)N(NC(=O)c3ccc(Br)cc3)C2=O)ccc1O` 23

***
Need inhibition, item CC1CCN(C2(O)C(=O)Nc3ccc(Br)cc32)CC1 (configuration not stated) 14

* * *

Reported inhibition values are given for each entry in this list.
- experimental target: Gag-Pol polyprotein (Human immunodeficiency virus type 1 group M subtype B (isolate HXB2)) (UniProt P04585)
- assay comment: RNase H inhibition, HIV 1 Gag Pol polyprotein, FRET biochemical assay, screening (AID 372)
- assay setup: HIV-1 RT RNase H, FRET RNA/DNA substrate fluorescence; at 10 µM; hits give high values
About 770 (0.77%) of roughly 100,000 compounds were called active. The sample holds actives, similar compounds and a random draw of the others, so the mix is not that of the screen.
Please respond with the number in % and leave the unit unwritten.

Example entries and their recorded answers appear below.
Returns the measured inhibition for the input compound. Input: `CCOc1ccc(/C=C2\C(=O)NC(=O)N(c3cc(C(F)(F)F)ccc3Cl)C2=O)cc1OC` 11

Any idea what inhibition was measured for `CCCOc1ccc(/C=C2\C(=O)N(c3ccc(S(N)(=O)=O)cc3)N=C2C)cc1OC` ? 6

Data request, read-out inhibition, for `COc1cc(/C=C2\C(=O)N(c3ccc(S(N)(=O)=O)cc3)N=C2C)cc(Br)c1OCc1ccccc1` 16

More entries:
# input compound: `Cc1ccc2nc(-c3c(-c4ccccc4)c4cc(C)ccc4[nH]c3=O)cc(-c3ccccc3)c2c1` ; wanted: its inhibition 31

# get_value(readout='inhibition', item= `COc1cc([N+](=O)[O-])ccc1-c1ccc(/C=C2/C(=O)N(c3ccc(C)cc3)N=C2C)o1` ) 6

* * *

- experimental target: Gag-Pol polyprotein (Human immunodeficiency virus type 1 group M subtype B (isolate HXB2)) (UniProt P04585)
- assay comment: RNase H inhibition, HIV 1 Gag Pol polyprotein, FRET biochemical assay, screening (AID 372)
- assay setup: HIV-1 RT RNase H, FRET RNA/DNA substrate fluorescence; at 10 µM
Screen size: about 100,000 compounds; about 770 (0.77%) were called active. Cut-off read from the data, not from the text of the source: active = inhibition above about 50%; inactive = the rest. Many of the other results were omitted from the sample, so actives are more common in it than they were.
I would appreciate it if you answered using one of these outcomes: active, inactive

See these solved cases before continuing.
So what was the verdict on `COc1ccccc1NC(=O)C(=O)NCc1ccc(C)cc1` in this test? active

GET /call?item= `C=CCN1C(=O)/C(=C\c2ccc(O)c(OCC)c2)C(=O)NC1=S` returns the recorded outcome of this test. inactive

# input for lookup
Called result for `O=c1oc2ccc(O)c(-c3ccccc3Cl)c2s1` inactive
